Consider compounds characterized by their pKi with human MCH1R receptor (Homo sapiens, UniProt Q99705).
Sequence (Q99705 whole entry): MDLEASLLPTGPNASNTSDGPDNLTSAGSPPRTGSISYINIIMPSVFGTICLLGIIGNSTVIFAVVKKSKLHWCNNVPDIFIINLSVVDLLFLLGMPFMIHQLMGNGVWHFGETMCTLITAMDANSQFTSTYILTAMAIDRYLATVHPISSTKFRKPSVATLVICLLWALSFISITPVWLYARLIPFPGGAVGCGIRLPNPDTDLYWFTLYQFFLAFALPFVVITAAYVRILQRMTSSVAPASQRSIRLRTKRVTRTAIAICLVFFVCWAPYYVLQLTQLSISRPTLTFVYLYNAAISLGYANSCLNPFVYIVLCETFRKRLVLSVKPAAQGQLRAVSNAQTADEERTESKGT
pKi: −log10 of the molar value. Where a name gives a salt, the structure may show the parent alone.

| COMPOUND | pKi |
| --- | --- |
| C=CCNC(=O)N[C@@H]1CC[C@@]2(c3ccc(OC)c(OC)c3)CCN(C)[C@H]2C1 (relative stereo) [Example 58] | 6.04 |
| COc1ccc([C@@]23CC[C@@H](NC(=O)NCc4ccc(Br)cc4)C[C@@H]2N(C)CC3)cc1OC (relative stereo) [Example 69, trifluoroacetate] | 6.64 |
| COc1ccc([C@@]23CC[C@@H](NC(=S)NCc4ccccc4)C[C@@H]2N(CCCc2ccccc2)CC3)cc1OC (relative stereo) [Example 23] | 7.37 |

Values from patent US20050192339A1
